- assayed system: T1, human IL-36R (on cells) (human, UniProt Q9HB29 20-575)
- T1 sequence (looked up): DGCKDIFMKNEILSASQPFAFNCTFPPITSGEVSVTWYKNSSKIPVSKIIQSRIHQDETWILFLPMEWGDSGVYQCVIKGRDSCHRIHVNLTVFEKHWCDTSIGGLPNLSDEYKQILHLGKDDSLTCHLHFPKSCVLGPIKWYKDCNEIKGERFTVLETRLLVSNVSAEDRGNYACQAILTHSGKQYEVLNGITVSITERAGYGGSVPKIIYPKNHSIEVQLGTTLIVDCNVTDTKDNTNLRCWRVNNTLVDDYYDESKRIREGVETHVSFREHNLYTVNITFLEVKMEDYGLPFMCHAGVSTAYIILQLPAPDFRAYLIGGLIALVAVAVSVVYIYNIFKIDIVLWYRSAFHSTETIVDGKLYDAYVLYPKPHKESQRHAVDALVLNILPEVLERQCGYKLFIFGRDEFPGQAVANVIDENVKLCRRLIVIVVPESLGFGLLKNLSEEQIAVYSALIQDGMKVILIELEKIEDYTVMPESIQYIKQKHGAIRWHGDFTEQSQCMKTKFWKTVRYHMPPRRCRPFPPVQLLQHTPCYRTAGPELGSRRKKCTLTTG
- assay comment: cell-based or functional assay
measurement label: EC50 (nM), IL-8 secretion by primary human keratinocytes, 100 ng/ml human IL-36γ
Use nM as the unit, but write only the number.

The following binders have reported results that may help.
Humanized (HzD) 1D9 (APE5281) (antibody, V domains shown, also called 1D9 Humanized) VH: QVQLMQSGAEVKKPGASVKVSCKASGFTFTSYDINWVRQAPGQRLEWMGWIYPGDSSTKYNEKFKGRVTITADKSANTAYMELASLRSEDTAVYFCTRSFYTMDYWGQGTTVTVSS VL: DIVMTQSPLSLPVTPGEPASISCRSSKSLLHSNANTYLYWFLQKPGQSPQLLISRMSNLASGVPDRFSGSGSGTDFTLKISRVEAEDVGVYYCMQHLEYPFTFGQGTKLEIK: 0.04
Hzd 5D3 (APE6194) (antibody, V domains shown, also called 5D3 Humanized) VH: QVQLVQSGAEVKKPGASVKVSCKASGYTFTNYWMNWVRQAPRQGLEWMGMFHPYGDVTRLNQKFKDRVTMTRDTSTSTVYMELSSLRSEDTAVYYCARTTSMIIGGFAYWGQGTLVTVSS VL: DIVMTQTPLSLSVTPGQPASISCRSSKSLLHRNAITYFYWYLHKPGQPPQLLIYQMSNLASGVPDRFSGSGSGTDFTLKISRVEAEDVGVYYCAQNLELPLTFGGGTKVEIK: 0.083
Hzd 5D3 (APE6060) (antibody, V domains shown, also called 5D3 Humanized) VH: QVQLVQSGAEVKKPGASVKVSCKASGYTFTNYWMNWVRQAPRQGLEWMGMFHPTGDVTRLNQKFKDRVTMTRDTSTSTVYMELSSLRSEDTAVYYCARTTSMIIGGFAYWGQGTLVTVSS VL: DIVMTQTPLSLSVTPGQPASISCRSSKSLLHRNAITYFYWYLQKPGQPPQLLIYQMSNLASGVPDRFSGSGSGTDFTLKISRVEAEDVGVYYCAQNLELPLTFGGGTKVEIK: 0.08
Hzd 18D4 (APE7247) (antibody, V domains shown, also called APE6903; APE07247) VH: DVQFQESGPGLVKPSQTLSLTCTVTGYSITADFAWNWIRQPPGKGLEWIGYISYSGDTNYNPSLKSRVTITRDTSKNQFSLKLSSVTAADTAVYFCAIRGPYSFTYWGQGTLVTVSS VL: DIQMTQSPSSLSASVGDRVTITCRASQWINNYLNWYQQKPGKAPKLLIYYTSMLHSGVPSRFSPSGSGNDYTFTISSLQPEDIATYYCQQGHTLPWTFGGGTKVEIKR: 0.074

Now, please, on to the next binder.
Which EC50 (nM), IL-8 secretion by primary human keratinocytes, 100 ng/ml human IL-36γ value is on record for Hzd 5D3 (APE6155) (antibody, V domains shown, also called APE6917; APE06155) VH: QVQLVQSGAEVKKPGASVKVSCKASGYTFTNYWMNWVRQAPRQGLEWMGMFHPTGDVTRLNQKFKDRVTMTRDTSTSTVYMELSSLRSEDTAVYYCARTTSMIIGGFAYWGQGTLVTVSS VL: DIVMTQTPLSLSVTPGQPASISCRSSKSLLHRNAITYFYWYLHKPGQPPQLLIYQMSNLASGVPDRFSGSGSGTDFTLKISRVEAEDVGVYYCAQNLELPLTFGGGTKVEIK ? 0.093
